Each entry below lists one item and its recorded TGI value.
System: SF-268 CNS
Assay: NCI tumour cell line growth inhibition, 48 h

molecule: O=C(NN=C1CCN(Cc2ccccc2)CC1)C(O)(c1ccccc1)c1ccccc1
target system: SF-268 CNS
TGI: > 100 µM
//
molecule: CC(=O)ON(OC(C)=O)c1ccc(C)cc1
target system: SF-268 CNS
TGI: > 100 µM
//
molecule: NC(N)=NCCCC(N=c1c2ccccc2n(O)c2ccccc12)C(=O)O (stereo not drawn)
target system: SF-268 CNS
TGI: > 100 µM
//
molecule: CCCC1NC(=O)C(CC(C)C)NC(=O)c2cccc(n2)C(=O)NC(CC(C)C)C(=O)NC(CCC)C(=O)NC(C(=O)OC)CCCCNC1=O (stereo not drawn)
target system: SF-268 CNS
TGI: > 100 µM
//
molecule: CCCc1c2c([nH]c(=O)c1C)C(=O)c1[nH]c(=O)c(C)c(CCC)c1C2=O
target system: SF-268 CNS
TGI: 87.4 µM
//
molecule: O=c1[nH]c2ccc(C(F)(F)F)cc2nc1-c1ccccc1
target system: SF-268 CNS
TGI: > 100 µM
//
molecule: C[C@]12CC[C@@H]3c4ccc(O)cc4CC[C@H]3[C@@H]1C/C(=C\c1ccc([N+](=O)[O-])cc1)C2=O
target system: SF-268 CNS
TGI: > 100 µM
//
molecule: COc1ccc(C(=O)Cn2c(C(=O)c3ccc(OC)cc3)nc3ccccc32)cc1
target system: SF-268 CNS
TGI: > 100 µM
//
molecule: CSC(=S)c1ccc(C(=S)SC)cc1
target system: SF-268 CNS
TGI: > 100 µM
//
molecule: CC(=O)Nc1ccc(/C=C(\NC(=O)c2ccccc2)c2nc3ccc4c(c3[nH]2)C(=O)c2ccccc2C4=O)cc1
target system: SF-268 CNS
TGI: > 100 µM
//
molecule: CCNC(=O)C[C@@H]1N=C(c2ccc(Cl)cc2)c2cc(OC)ccc2-n2c(C)nnc21
target system: SF-268 CNS
TGI: > 100 µM
//
molecule: Cc1ccc(NC(c2ccccc2)c2ccc3cccnc3c2O)cc1 (stereo not drawn)
target system: SF-268 CNS
TGI: 13.6 µM
//
molecule: S=c1[nH]nc(COc2ccc3c(c2)CCCC3)n1/N=C/c1ccc(Cl)cc1
target system: SF-268 CNS
TGI: 43 µM
//
molecule: Cn1cc(C(=O)c2nccc3c2cnc2ccccc23)ccc1=O
target system: SF-268 CNS
TGI: > 100 µM
//
molecule: C=C1C(=O)O[C@H]2[C@H]1CC/C(COC(=O)C(=O)c1c[nH]c3ccccc13)=C\CC[C@@]1(C)O[C@@H]21
target system: SF-268 CNS
TGI: 7.68 µM
//
molecule: CC1=CC=NN2C(=O)[C@H](C)C2C1 (stereo partly drawn)
target system: SF-268 CNS
TGI: > 100 µM
//
molecule: C/C(=N\NC(=S)N1CCCCCC1)c1nccnc1C
target system: SF-268 CNS
TGI: > 100 µM
//
molecule: CCCCCC(CN1CCOCC1)C(=O)/C=C/c1ccccc1 (stereo not drawn)
target system: SF-268 CNS
TGI: 5.02 µM
//
molecule: COC(CN(C)C(=O)C(C)NC(=O)c1ccccc1)OC (stereo not drawn)
target system: SF-268 CNS
TGI: > 100 µM
//
molecule: CCOC(=O)C1C(=O)CC(O)(OCC)C(C(=O)OCC)C1c1ccc(OC)cc1 (stereo not drawn)
target system: SF-268 CNS
TGI: > 100 µM
//
molecule: CCOc1c2ccsc2c(OCC)c2ccsc12
target system: SF-268 CNS
TGI: > 100 µM
//
molecule: c1ccc(COc2ccc(CC3SCCCS3)cc2)cc1
target system: SF-268 CNS
TGI: > 100 µM
//
molecule: Cc1cc(-c2ccc(C(=O)O)[nH]2)on1
target system: SF-268 CNS
TGI: > 100 µM
